experimental_system: T1, Ara h 2 (peanut, UniProt Q6PSU2 22-172)
T1 construct: also called full length Ara h 2
T1 sequence (looked up): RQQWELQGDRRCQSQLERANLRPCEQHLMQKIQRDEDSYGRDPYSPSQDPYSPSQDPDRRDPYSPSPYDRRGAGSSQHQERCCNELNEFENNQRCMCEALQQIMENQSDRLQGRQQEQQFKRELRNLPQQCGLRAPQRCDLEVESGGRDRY
protocol_text: competition ELISA on coated Ara h 2; control: Healthy donor serum
Overview of reported % inhibition of IgE binding across a group of binders:
Number only, in %; omit the unit.

>>> measurement("h4B2 (antibody, V domains shown, Recombinant human IgG; also called hMAb 4B2) VH: QVQLQEAGPRLVKPSQTLSVTCTVSGASITIGGYYWSWIRQHPGKGLEWMGYIYSNGRTYYNPSLKSRIAMSIDTSKNQFSLKLTSVTAADTAIYFCAREAWETPLWGQGTLITVSS VL: DIQMTQSPSSLSASVGDRVTITCQANQDIVNSLNWFQHKPGTAPKVLIYDASKLETGVPSRFSGSGSGTHFTFTISGLQPEDFATYFCQQYENLPHTFGQGTKLEIR")
0
>>> measurement("h32B10 (antibody, V domains shown, Recombinant human IgG; also called hMAb 32B10) VH: QVQLVQSGAEVKKPGASVKVSCRASGYIFRNFDINWVRQATGQGLEWMGWMSPKSGDTGYAQKFQGRVTMTRDTSINTAYMELSSLTSEDSAVYYCARGVDGTNWGQGTRVTVSS VL: DIVMTQSPDSLGVSLGERATISCKSSQSILDNSNNKNFIAWFQQKPGQPPKLLIYWASARESGVPDRFSGSGSGTEFTLTINSLQAEDVAVYYCYQYYSTPHTFGQGTKLDLR")
0
>>> measurement("h37D5 (antibody, V domains shown, Recombinant human IgG; also called hMAb 37D5) VH: EEQLVESGGRLLRPGESLSLSCAAVGFNFGDFGMAWVRQPPGKGLEWVAGINWSGHSTGFVDSMKGRLTISRDSAKSSLFLQMNSLRGEDTAVYYCARVGRLCSGDICDSMGAFDLWGQGTMVTVSS VL: DIQMTQSPSTLSASIGDRVTITCRASQTIDNWLAWYQQRPGKAPKLLIYQASSLQSGVSSRFRGSGSGTEFTLTITSLQPDDFATYYCQKSNGYSRTFGQGTKVEIK")
2.27

Requested field: % inhibition of IgE binding. Item: h12G10 (antibody, human IgG1, V domains shown, Recombinant human IgG; also called hMAb 12G10) VH: EVQLLESGGRLLRPGGSLSLSCVASGFYFGDFGMSWVRQVPGKGLEWVSGIDWSGRSTGYVDSMKGRLTISRDNDKSSLYLQMNDLRGEDTAVYYCARVGRLCSGDSCDSMGAFDLWGQGTMVTVSS VL: DIQLTQSPSTLSASIGDSVTITCRASQNIDNWLAWYQQKPGKAPRLLIYKASSLGSGVSSKFRGSGFGTEFTLTITSLQPDDFATYYCQKSNGYSRTFGQGTKVDIK 0
